Test system: HOP-62 complex spheroids with HUVEC/MSC, viability
Experiment: Anticancer human tumor HOP-62 cell line growth inhibition [RAS];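 note: spheroids exposed to agents for seven days before readout; 100% = DMSO vehicle control viability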
Details: second compound 0.1 µM; first compound 0.03 µM; stronger effect = lower value
Text: RAS pathway inhibitors in Combinations in Complex Spheroids A high-throughput screen of multi-cell type tumor spheroids was designed to identify active combinations of RAS pathway inhibitors and targeted small molecules. Complex spheroids include a stromal component modeled by human endothelial cells (HUVEC) and fibroblasts modeled by human mesenchymal stem cells (MSCs). […] Compounds. […] If the clinical Cmax for an agent had not been determined, the highest concentration tested was 10 microM. […]
readout name: viability, T/C (%)

molecule	value units	val
CC1(C)CCC(Nc2ncc(C(F)(F)F)c(-c3c[nH]c4c(P(C)(C)=O)c(C#N)ccc34)n2)CN1 (centres undefined) + C#Cc1c(F)ccc2cc(O)cc(-c3ncc4c(N5CC6CCC(C5)N6)nc(OCC56CCCN5CC(F)C6)nc4c3F)c12	%	24
CCc1c2c(nc3ccc(O)cc13)-c1cc3c(c(=O)n1C2)COC(=O)[C@]3(O)CC + C=CC(=O)N1CCN(c2nc(OCC3CCCN3C)nc3c(F)c(-c4nc(N)cc(C)c4C(F)(F)F)c(Cl)cc23)C(C)C1	%	3.2
CC1(C)CCC(Nc2ncc(C(F)(F)F)c(-c3c[nH]c4c(P(C)(C)=O)c(C#N)ccc34)n2)CN1 (centres undefined) + C=CC(=O)N1CCN(c2nc(OCC3CCCN3C)nc3c(F)c(-c4nc(N)cc(C)c4C(F)(F)F)c(Cl)cc23)C(C)C1	%	17.5
CCc1c2c(nc3ccc(O)cc13)-c1cc3c(c(=O)n1C2)COC(=O)[C@]3(O)CC + C#Cc1c(F)ccc2cc(O)cc(-c3ncc4c(N5CC6CCC(C5)N6)nc(OCC56CCCN5CC(F)C6)nc4c3F)c12	%	4.19
